system: OVCAR-3; assay: NCI tumour cell line growth inhibition, 48 h
Calls of active or inactive are those of the source. No stated cut-off is given here; in the data, active = GI50 up to about 1.1 µM and inactive = higher.
Permitted responses: true = active, false = inactive

CCN1CCCC(NCc2c3ccccc3c(CNC3CCCN(CC)C3)c3ccccc23)C1 (stereo not given) : false

INPUT: Could you kindly confirm the outcome this assay logged for COc1ccccc1NC(=S)N/N=C(/C)c1ccccn1 ?
OUTPUT: true

INPUT: Could you kindly confirm the outcome this assay logged for O=C1C2C=CC(n3[nH]c(=O)n(Cc4ccccc4)c3=O)CC2C(=O)N1c1ccc(Br)cc1 (stereo not given) ?
OUTPUT: false

INPUT: Could you kindly confirm the outcome this assay logged for CC(C(O)Cc1ccccc1)N(C)/N=N/c1ccc([N+](=O)[O-])cc1 (stereo not given) ?
OUTPUT: false

INPUT: Could you kindly confirm the outcome this assay logged for Cc1ccc(CNc2ccc(Br)cc2)cc1 ?
OUTPUT: false

INPUT: Could you kindly confirm the outcome this assay logged for N#CC1=C2Sc3ccccc3N2[C@H](c2ccccc2)[C@H]2COC(=O)[C@@H]12 ?
OUTPUT: false
